Data provenance: PubChem BioAssay (NCATS)

# Tested on: CP247
# experimentalDetails: qHTS profiling for inhibitors of Plasmodium falciparum proliferation (AID 504749); also: nearly all actives have a fitted effect of over 60% in size
# conditionDetails: P. falciparum in erythrocytes, SYBR Green DNA, 72 h; series mostly up to 28.7 µM
Results filed as inconclusive are left out. Calls of active or inactive are those of the source. Calls follow the shape of the dose curve; as a rule, active = well fitted inhibition curve with a large enough effect; inconclusive = small, poorly fitted or top-dose-only effect; inactive = flat fitted curve, though single readings scatter.
Thanks in advance; please answer with one of these: Yes (active), No (inactive)

Take a look at these entries with their results.
Nc1ccc(S(=O)(=O)Nc2ccccn2)cc1 :: No
CN(C)CCc1c[nH]c2ccc(CS(=O)(=O)N3CCCC3)cc12 :: No
COc1ccc(-c2ccc3cc(C(=O)O)ccc3c2)cc1C12CC3CC(CC(C3)C1)C2 :: No

[ask] Write down the call the test reported for this molecule. Item: `COc1ccc(C(=O)CC(=O)c2ccc(C(C)(C)C)cc2)cc1`
[reply] No

[ask] Write down the call the test reported for this molecule. Item: CCOc1cc(N)c(Cl)cc1C(=O)NCC1CN(Cc2ccc(F)cc2)CCO1 (configuration not stated)
[reply] Yes

[ask] Write down the call the test reported for this molecule. Item: `C[C@@H](NCCCc1cccc(C(F)(F)F)c1)c1cccc2ccccc12`
[reply] Yes

[ask] Write down the call the test reported for this molecule. Item: `COC(=O)Nc1nc2ccc(C(=O)c3ccccc3)cc2[nH]1`
[reply] No

[ask] Write down the call the test reported for this molecule. Item: `COc1cccc(N(C)C(=S)Oc2ccc3c(c2)CCCC3)n1`
[reply] No

[ask] Write down the call the test reported for this molecule. Item: `COc1cc([C@@H]2c3cc4c(cc3[C@H](O)[C@H]3COC(=O)[C@H]23)OCO4)cc(OC)c1OC`
[reply] Yes

[ask] Write down the call the test reported for this molecule. Item: `Nc1[nH]c(=O)ncc1F`
[reply] No

[ask] Write down the call the test reported for this molecule. Item: `CCc1c2c(nc3ccc(OC(=O)N4CCC(N5CCCCC5)CC4)cc13)-c1cc3c(c(=O)n1C2)COC(=O)[C@]3(O)CC`
[reply] No

[ask] Write down the call the test reported for this molecule. Item: `C[C@]12C=CC(=O)C=C1CC[C@@H]1[C@@H]2C(=O)C[C@@]2(C)[C@H]1CC[C@]2(O)C(=O)CO`
[reply] No

[ask] Write down the call the test reported for this molecule. Item: `CCn1cc(C(=O)O)c(=O)c2cc(F)c(N3CCNCC3)cc21`
[reply] No

[ask] Write down the call the test reported for this molecule. Item: `COc1ccc2cc3[n+](cc2c1OC)CCc1cc2c(cc1-3)OCO2`
[reply] Yes

[ask] Write down the call the test reported for this molecule. Item: `CNNCc1ccc(C(=O)NC(C)C)cc1`
[reply] No

[ask] Write down the call the test reported for this molecule. Item: `Cc1cccc(N(C)C(=S)Oc2ccc3ccccc3c2)c1`
[reply] No

[ask] Write down the call the test reported for this molecule. Item: `CNS(=O)(=O)Cc1ccc2[nH]cc(CCN(C)C)c2c1`
[reply] No

----------
# experimentalDetails: qHTS Assay for Identifying Gametocytocidal Compounds (AID 743244);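 also: % is scaled to controls: 0 for no effect and ±100 for the full control effect; actives lower the fluorescent signal which means gametocytes are killed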
# conditionDetails: P. falciparum 3D7 stage III-V gametocytes, alamarBlue, 72 h; stronger effect = lower value
Results filed as inconclusive are left out.
outcomeMeasure: max response (%)
Return type: number; implicit unit %.

[ask] I'd like to know its max response. The molecule in question is CCN1CCCC1CNC(=O)c1cc(S(N)(=O)=O)ccc1OC (centres undefined)
[reply] 13

[ask] I'd like to know its max response. The molecule in question is `N[C@@H](C(=O)N[C@@H]1C(=O)N2C(C(=O)O)=C(Cl)CS[C@H]12)c1ccccc1`
[reply] 19.9

----------
# Test system: PC15
# experimentalDetails: qHTS profiling for inhibitors of Plasmodium falciparum proliferation (AID 504749); also: nearly all actives have a fitted effect of over 60% in size
# conditionDetails: P. falciparum in erythrocytes, SYBR Green DNA, 72 h; series mostly up to 28.7 µM
Results filed as inconclusive are left out. The source made the active and inactive calls. Calls come from the whole dose curve; as a rule, active = well fitted inhibition curve with a large enough effect; inconclusive = small, poorly fitted or top-dose-only effect; inactive = flat fitted curve, though single readings scatter.
Thanks in advance; please answer with one of these: true = active, false = inactive

CC[C@H](NC(C)C)[C@H](O)c1ccc(O)c2[nH]c(=O)ccc12 :: false

[ask] Write down the call the test reported for this molecule. Item: `CCCc1cc(C(N)=S)ccn1`
[reply] false

[ask] Write down the call the test reported for this molecule. Item: `O=P(O)(O)C(O)(Cc1cccnc1)P(=O)(O)O`
[reply] false

[ask] Write down the call the test reported for this molecule. Item: `Oc1c(Cl)cc(Cl)c2cccnc12`
[reply] false

[ask] Write down the call the test reported for this molecule. Item: `COc1cccc(N(C)C(=S)Oc2ccc3c(c2)CCCC3)n1`
[reply] false

[ask] Write down the call the test reported for this molecule. Item: Nc1nc(N)c2nc(CNc3ccc(C(=O)NC(CCC(=O)O)C(=O)O)cc3)cnc2n1 (stereo unspecified)
[reply] false

[ask] Write down the call the test reported for this molecule. Item: `CN(C)c1ccc(C(=C2C=CC(=[N+](C)C)C=C2)c2ccc(N(C)C)cc2)cc1`
[reply] true

[ask] Write down the call the test reported for this molecule. Item: C1CCC(C(CC2CCCCN2)C2CCCCC2)CC1 (stereo unspecified)
[reply] true

[ask] Write down the call the test reported for this molecule. Item: CCC(C)(C)c1ccc(CC(C)CN2C[C@@H](C)O[C@@H](C)C2)cc1 (stereo partly specified)
[reply] false

[ask] Write down the call the test reported for this molecule. Item: `Nc1[nH]c(=O)ncc1F`
[reply] false

[ask] Write down the call the test reported for this molecule. Item: `CCc1c2c(nc3ccc(OC(=O)N4CCC(N5CCCCC5)CC4)cc13)-c1cc3c(c(=O)n1C2)COC(=O)[C@]3(O)CC`
[reply] false

[ask] Write down the call the test reported for this molecule. Item: `Cc1noc(NS(=O)(=O)c2ccc(N)cc2)c1C`
[reply] false

[ask] Write down the call the test reported for this molecule. Item: `CCN(C)C(=O)Oc1cccc([C@H](C)N(C)C)c1`
[reply] false

[ask] Write down the call the test reported for this molecule. Item: `NC(=O)c1cccnc1`
[reply] false

[ask] Write down the call the test reported for this molecule. Item: `COc1ccc2cc3[n+](cc2c1OC)CCc1cc2c(cc1-3)OCO2`
[reply] true

[ask] Write down the call the test reported for this molecule. Item: `COc1nc(N)nc2c1ncn2[C@@H]1O[C@H](CO)[C@@H](O)[C@@H]1O`
[reply] false

[ask] Write down the call the test reported for this molecule. Item: `Cn1nnc2c(C(N)=O)ncn2c1=O`
[reply] false

----------
# experimentalDetails: qHTS of pediatric cancer cell lines to identify multiple opportunities for drug repurposing: Primary screen for TC32 cells (AID 1347089); also: nearly all actives have a fitted effect of over 60% in size
# conditionDetails: TC32 Ewing sarcoma viability, CellTiter-Glo luminescence, 48 h; series mostly up to 45.8 µM
Records with an inconclusive call do not appear. The source made the active and inactive calls. Calls follow the shape of the dose curve; as a rule, active = well fitted cell-killing curve with a large enough effect; inconclusive = small, poorly fitted or top-dose-only effect; inactive = flat fitted curve, though single readings scatter.
Thanks in advance; please answer with one of these: true for active, false for inactive

Take a look at these entries with their results.
Clc1ccccc1CN1CCc2sccc2C1 :: false
CCN(C)C(=O)Oc1cccc([C@H](C)N(C)C)c1 :: false
Cc1nnc(NS(=O)(=O)c2ccc(N)cc2)s1 :: false
COc1cc2nc(N3CCCN(C)CC3)nc(NC3CCN(Cc4ccccc4)CC3)c2cc1OC :: true
CC(C)OC(=O)OCOP(=O)(CO[C@H](C)Cn1cnc2c(N)ncnc21)OCOC(=O)OC(C)C :: false

[ask] Write down the call the test reported for this compound. Item: `CN1CCN(c2c(F)cc3c(=O)c(C(=O)O)cn4c3c2OCN4C)CC1`
[reply] false

[ask] Write down the call the test reported for this compound. Item: `O=C(O)CCn1c2c(c3ccccc31)C[C@H](NS(=O)(=O)c1ccc(F)cc1)CC2`
[reply] false

[ask] Write down the call the test reported for this compound. Item: `C#CCN[C@@H]1CCc2ccccc21`
[reply] false

[ask] Write down the call the test reported for this compound. Item: `CC(C)(Sc1cc(C(C)(C)C)c(O)c(C(C)(C)C)c1)Sc1cc(C(C)(C)C)c(O)c(C(C)(C)C)c1`
[reply] false

----------
# Tested on: HaCat
# experimentalDetails: Cytotoxic Profiling of Annotated Libraries Using Quantitative High-Throughput Screening (AID 1296008); also: % is scaled to controls: 0 for no effect and ±100 for the full control effect; nearly all actives have a fitted effect of over 60% in size
# conditionDetails: Five cell lines viability, CellTiter-Glo ATP luminescence, 48-72 h; stronger effect = lower value
Inconclusive results are not listed.
outcomeMeasure: max response (%)
Return type: number; implicit unit %.

Look over these answered cases.
CCOC(=O)c1ccc(OC(=O)CCCCCN=C(N)N)cc1 :: 4.21
CNNCc1ccc(C(=O)NC(C)C)cc1 :: -9.48
O=C(O)C1CCCN(CCC=C(c2ccccc2)c2ccccc2)C1 (stereo not drawn) :: -1.89
CCN(C)C(=O)Oc1cccc([C@H](C)N(C)C)c1 :: -4.32
CCN[C@H]1C[C@H](C)S(=O)(=O)c2sc(S(N)(=O)=O)cc21 :: -6.44

[ask] I'd like to know its max response. The molecule in question is `CCC(=O)O[C@]1(C(=O)SCF)[C@H](C)C[C@H]2[C@@H]3C[C@H](F)C4=CC(=O)C=C[C@]4(C)[C@@]3(F)[C@@H](O)C[C@@]21C`
[reply] 0.77

[ask] I'd like to know its max response. The molecule in question is `O=P(O)(O)C(O)(Cc1cccnc1)P(=O)(O)O`
[reply] -18.6

[ask] I'd like to know its max response. The molecule in question is `CCCc1cc(C(N)=S)ccn1`
[reply] 0.608

[ask] I'd like to know its max response. The molecule in question is `CCN(CC)CCn1c(=O)c(Cc2ccc(OC)cc2)nc2ccccc21`
[reply] -7.99

[ask] I'd like to know its max response. The molecule in question is `Cc1noc(NS(=O)(=O)c2ccc(N)cc2)c1C`
[reply] 1.98

[ask] I'd like to know its max response. The molecule in question is `Cn1nnc2c(C(N)=O)ncn2c1=O`
[reply] 0.848

[ask] I'd like to know its max response. The molecule in question is `O=c1cc(O)c(Cl)c[nH]1`
[reply] -15.6

[ask] I'd like to know its max response. The molecule in question is `COCCCOc1cc(C[C@@H](C[C@H](N)[C@@H](O)C[C@H](C(=O)NCC(C)(C)C(N)=O)C(C)C)C(C)C)ccc1OC`
[reply] 0.78

[ask] I'd like to know its max response. The molecule in question is `NC(=O)c1ccc2[nH]ccc2c1`
[reply] 0.172
